Would you mind telling me the reported Change of each entry?
- Organism: Rattus norvegicus
- Procedure Details: Hypolipidemic effects(liver weight) in male rats
- Assay type: functional
Kindly answer with a numeric value in %, unit omitted.

q: Bench note: what Change did CC(C)(CCCCOc1cccc(OCCCCC(C)(C)C(=O)O)c1)C(=O)O show?
a: 18

q: Bench note: what Change did CC(C)(CCCOc1ccc(OCCCC(C)(C)C(=O)OCc2cccnc2)c(-c2ccccc2)c1)C(=O)OCc1cccnc1 show?
a: 19

q: Bench note: what Change did Cc1cc(OCCCC(C)(C)C(=O)O)c(C)c(C)c1OCCCC(C)(C)C(=O)O show?
a: 21

q: Bench note: what Change did COC(=O)C(C)(C)CCCOc1ccc(C=O)c(OCCCC(C)(C)C(=O)OC)c1 show?
a: 11

q: Bench note: what Change did COC(=O)c1c(OCCCC(C)(C)C(=O)OC)cccc1OCCCC(C)(C)C(=O)OC show?
a: 0

q: Bench note: what Change did CC(C)(CCCOc1ccc(OCCCC(C)(C)C(=O)O)c(C(O)c2ccccc2)c1)C(=O)O (stereo not drawn) show?
a: 16

q: Bench note: what Change did CC(C)(CCCOc1ccc(OCCCC(C)(C)C(=O)O)c(-c2ccccc2Cl)c1)C(=O)O show?
a: 23

q: Bench note: what Change did CC(C)(CCCOc1ccc(C(=O)c2ccccc2)c(OCCCC(C)(C)C(=O)O)c1)C(=O)O show?
a: 11

q: Bench note: what Change did COC(=O)C(C)(C)CCCOc1ccc(OCCCC(C)(C)C(=O)OC)c(C=O)c1 show?
a: 9

q: Bench note: what Change did COC(=O)C(C)(C)CCCOc1cc(OCCCC(C)(C)C(=O)OC)cc(-c2ccccc2)c1 show?
a: 13

q: Bench note: what Change did CC(C)(CCCOc1ccc(OCCCC(C)(C)C(=O)O)c(S(=O)(=O)c2ccccc2)c1)C(=O)O show?
a: 10

q: Bench note: what Change did COC(=O)C(C)(C)CCCOc1cc(C)cc(OCCCC(C)(C)C(=O)OC)c1 show?
a: 18

q: Bench note: what Change did COC(=O)C(C)(C)CCCOc1ccc(OCCCC(C)(C)C(=O)OC)c(-c2nnco2)c1 show?
a: 11

q: Bench note: what Change did CC(C)(CCCOc1ccc(OCCCC(C)(C)C(=O)O)c(-c2ccc(Cl)cc2Cl)c1)C(=O)O show?
a: 0

q: Bench note: what Change did CCOC(=O)C(C)(C)CCCCCCOc1ccc(OCCCCCCC(C)(C)C(=O)OCC)cc1 show?
a: 0

q: Bench note: what Change did CC(C)(CCCOc1ccc(OCCCC(C)(C)C(=O)O)c(C(F)(F)F)c1)C(=O)O show?
a: 39

q: Bench note: what Change did CCCC(O)c1cc(OCCCC(C)(C)C(=O)O)ccc1OCCCC(C)(C)C(=O)O (stereo not drawn) show?
a: 37

q: Bench note: what Change did COC(=O)C(C)(C)CCCSc1ccc(-c2ccc(SCCCC(C)(C)C(=O)OC)cc2)cc1 show?
a: 14

Ref: ChEMBL document CHEMBL1122242
